- Tgt: T1, AAV8 (adeno-associated virus serotype 8)
- T1 construct: also called adeno-associated virus serotype 8
- Test Details: SPR, AAV on CM5 chip
Recorded koff, one value per entry.
All answers are understood in s⁻¹, so give the number only.

// worked examples, koff included
A4-H1 (VHH) VHH: VQLVESGGGLVQPGGSLRLSCAASGRSFSINTMGWFRQAPGKGLEAVAIVTRGGSTYYADSVKGRFTISRDNSKNTLYLQMNSLRAEDTAVYYCHIDEVRQSSWTTSNIWGQGTLVTVSS	0.00135
A4-H3 (VHH) VHH: VQLQASGGGFVQPGGSLRLSCAASGSIFSINLMGWFRQAPGKERELVAVITPGGNTYYADSVKGRFTISRDNSKNTVYLQMNSLRAEDTATYYCHVDEVRQSSWTTSNLWGQGTQVTVSS	0.00128
A4-H2 (VHH) VHH: VQLQASGGGFVQPGGSLRLSCAASGRSFSINTMGWFRQAPGKEREFVAVVTRGGSTYYADSVKGRFTISRDNSKNTVYLQMNSLRAEDTATYYCHIDEVRQSSWTTSNIWGQGTQVTVSS	0.00028
A4-H6 (VHH) VHH: VQLVESGGGLVQPGGSLRLSCAASGRGFSINTMGWFRQAPGKGRELVAIVTRGGTTYYADSVKGRFTISRDNSKNTVYLQMNSLRAEDTAVYYCHVDEVRQSSWTTSNLWGQGTLVTVSS	0.00164
A4-H5 (VHH) VHH: VQLQASGGGFVQPGGSLRLSCAASGRGFSINTMGWFRQAPGKERELVAVVTRGGTTYYADSVKGRFTISRDNSKNTVYLQMNSLRAEDTAVYYCHVDEVRQSSWTTSNLWGQGTQVTVSS	0.0013

Please turn your attention to the following entry.
[Q] For the binder shown here, A4-H4 (VHH) VHH: VQLVESGGGLVQPGGSLRLSCAASGSIFSINLMGWFRQAPGKGLELVAIITPGGNTYYADSVKGRFTISRDNSKNTVYLQMNSLRAEDTAVYYCHVDEVRQSSWTTSNLWGQGTLVTVSS , give the reported koff.
[A] 0.00125
